Cited source for all entries: ChEMBL document CHEMBL1152198

Reported CC50 by item:
Test system: MT2
Experiment: Cytotoxicity against HIV1 Y181C mutant infected human MT2 cells after 5 days by MTT assay
Type: cell-based
Conditions: mt2, 120 h
Returns: string containing the numeric result and its unit.

# Smiles string, Study system, CC50
data = [
    ("C#CCCOc1ccc(OC)cc1CCNC(=S)Nc1ccc(Br)cn1", "MT2", "4 µM"),
]

--- query ---
Quote MT2 CC50 for entry COc1ccc(OC)c(CCNC(=S)Nc2ccc(Br)cn2)c1 . 18 µM

###

In this section, each of the molecules is paired with its reported IC50.
Biological target: Human immunodeficiency virus type 1 reverse transcriptase (Human immunodeficiency virus 1, UniProt Q72547)
A complete answer gives the number followed by the unit.

Here is how some molecules turned out for IC50.
# Smiles string, IC50
records = [
    ("C#CCCCOc1ccc(OC)cc1CCNC(=S)Nc1ccc(Br)cn1", "27 nM"),
    ("C#CCCOc1ccc(OC)cc1CCNC(=S)Nc1ccc(Br)cn1", "3.8 nM"),
    ("COC(=O)COc1ccc(OC)cc1CCNC(=S)Nc1ccc(Br)cn1", "100 nM"),
    ("C#CCOCCOc1ccc(OC)cc1CCNC(=S)Nc1ccc(Br)cn1", "41 nM"),
    ("COc1ccc(OCCO)c(CCNC(=S)Nc2ccc(Br)cn2)c1", "19 nM"),
    ("COc1ccc(OC)c(CCNC(=S)Nc2ccc(Br)cn2)c1", "28 nM"),
]

Please find the next molecule below.
Supply measured IC50 of COc1ccc(OCCCO)c(CCNC(=S)Nc2ccc(Br)cn2)c1 in your reply. 24 nM
